- Tested on: COLO 205 colon
- test-description: NCI tumour cell line growth inhibition, 48 h
measurement-label: TGI

Worked examples, 3 compounds total:
compound	TGI
COC(=O)N/N=C(/CC1(O)C(=O)Nc2ccc([N+](=O)[O-])cc21)c1ccccc1 (configuration not stated)	> 82.5 µM
N#CC1(C#N)C(c2ccc(C3C(C#N)(C#N)C3(C#N)C#N)cc2)C1(C#N)C#N	> 100 µM
O=c1[nH]c2cc([N+](=O)[O-])ccc2nc1/C(=N/Nc1ccccc1)C(O)c1ccc(Cl)cc1Cl (configuration not stated)	> 100 µM

TGI lookup needed for CCOC(=O)C1CSCCSC1 , thanks. > 100 µM

TGI lookup needed for CC(=O)Nc1cccc2[nH]c3ccccc3c(=O)c12 , thanks. 34 µM

TGI lookup needed for CO[C@H]1/C=C/[C@@](C)(O)/C=C/C(=O)O[C@H](C)[C@@H](C)CC/C=C/1C , thanks. 47.8 µM

====

- Tested on: HCT-15 colon
- test-description: NCI tumour cell line growth inhibition, 48 h
measurement-label: GI50

Worked examples, 3 compounds total:
compound	GI50
O=c1[nH]cnc2c1ncn2C1CCC(CO)O1 (centres undefined)	> 1000 µM
CO[C@H]1/C=C/[C@@](C)(O)/C=C/C(=O)O[C@H](C)[C@@H](C)CC/C=C/1C	7.35 µM
O=C1NC(=O)/C(=C/c2ccc3ncccc3c2)S1	> 21.1 µM

Below: the item to evaluate.
GI50 lookup needed for CN(C)CCCNc1nc2ccccc2c2c(=O)c3cc(F)ccc3sc12 , thanks. 1.65 µM

====

- Test system: SNB-19 CNS
- test-description: NCI tumour cell line growth inhibition, 48 h; in the data active means GI50 below about 0.43 µM; inactive means the rest
Outcome (select one): active, inactive

Solved cases (3 shown):
smiles-input	group
O=C1C(=O)/C(=C/c2ccccc2)CCCCCC/C1=C/c1ccccc1	inactive
C1C[OH+]CCNCC[OH+]CC[OH+]CCN1.O.[Cl-].[Pt+4]	inactive
O=C(CCCBr)Nc1ccccc1C#C/C=C\C#Cc1ccccc1C(F)(F)F	inactive

Tell me the recorded outcome of this test for O=C(c1ccc(Oc2ccccc2)cc1Cl)c1c[nH]c2ncnc(N[C@@H]3CC[C@@H](CO)OC3)c12 . inactive

Tell me the recorded outcome of this test for CN(C)CCNc1c2c(c(NCCN(C)C)c3c(CN(C)C)c[nH]c13)C(=O)c1ccccc1C2=O . inactive

Tell me the recorded outcome of this test for COc1ccccc1/C=C/C(=O)c1ccc(Nc2nc(Nc3ccc(F)cc3)nc(Nc3ccc(F)cc3)n2)cc1 . inactive

====

- Tested on: HS 578T breast
- test-description: NCI tumour cell line growth inhibition, 48 h
Reported values of TGI for individual entries

Worked examples, 5 compounds total:
compound	target-or-test-system	TGI
COc1ccc(P2(=S)OCCOP(=S)(c3ccc(OC)cc3)S2)cc1 (configuration not stated)	HS 578T breast	> 100 µM
COc1ccc(Cc2c(N)[nH]c(=O)[nH]c2=O)cc1	HS 578T breast	> 100 µM
C=C1C(O)C2C(=C(CC(C)C)C13CC3)C(=O)C(C)(C)C2O (configuration not stated)	HS 578T breast	> 100 µM
COC(=O)N/N=C(/CC1(O)C(=O)Nc2ccc([N+](=O)[O-])cc21)c1ccccc1 (configuration not stated)	HS 578T breast	73.3 µM
O=C(Nc1ccn(C2CCC(CO)O2)c(=O)n1)c1ccccc1 (configuration not stated)	HS 578T breast	> 100 µM

TGI lookup needed for C=CCOC1=C(OC(C)=O)C(=O)OC1C1COC(C)(C)O1 (configuration not stated) , thanks. > 100 µM

TGI lookup needed for O=c1cn[nH]c2nc3ccccc3n12 , thanks. > 100 µM

TGI lookup needed for O=C1c2ccc3c4ccc5c6c(ccc(c7ccc(c2c37)C(=O)N1CCN1CCCCC1)c64)C(=O)N(CCN1CCCCC1)C5=O , thanks. > 100 µM

TGI lookup needed for COC(=O)C1=C(C(=O)OC)SC2(S1)C1=C(CCC1)SC(C(=O)OC)=C2C(=O)OC , thanks. 35.4 µM

TGI lookup needed for CO[C@@H](C)Cn1c(=O)n(C)c2cnc3ccc(-c4cncc(C(C)(C)O)c4)cc3c21 , thanks. 0.191 µM

TGI lookup needed for Cc1cc(=O)[nH]c(-n2[nH]c3c(c2=O)CCCC3)n1 , thanks. > 100 µM

TGI lookup needed for NCCCNc1nc2ccccc2c2c(=O)c3cccc(F)c3sc12 , thanks. 3.97 µM
